biological target: Human C3 (human, UniProt P01024 23-1663); assay: cell-based or functional assay
Sequence (P01024 23-1663 limits assumed): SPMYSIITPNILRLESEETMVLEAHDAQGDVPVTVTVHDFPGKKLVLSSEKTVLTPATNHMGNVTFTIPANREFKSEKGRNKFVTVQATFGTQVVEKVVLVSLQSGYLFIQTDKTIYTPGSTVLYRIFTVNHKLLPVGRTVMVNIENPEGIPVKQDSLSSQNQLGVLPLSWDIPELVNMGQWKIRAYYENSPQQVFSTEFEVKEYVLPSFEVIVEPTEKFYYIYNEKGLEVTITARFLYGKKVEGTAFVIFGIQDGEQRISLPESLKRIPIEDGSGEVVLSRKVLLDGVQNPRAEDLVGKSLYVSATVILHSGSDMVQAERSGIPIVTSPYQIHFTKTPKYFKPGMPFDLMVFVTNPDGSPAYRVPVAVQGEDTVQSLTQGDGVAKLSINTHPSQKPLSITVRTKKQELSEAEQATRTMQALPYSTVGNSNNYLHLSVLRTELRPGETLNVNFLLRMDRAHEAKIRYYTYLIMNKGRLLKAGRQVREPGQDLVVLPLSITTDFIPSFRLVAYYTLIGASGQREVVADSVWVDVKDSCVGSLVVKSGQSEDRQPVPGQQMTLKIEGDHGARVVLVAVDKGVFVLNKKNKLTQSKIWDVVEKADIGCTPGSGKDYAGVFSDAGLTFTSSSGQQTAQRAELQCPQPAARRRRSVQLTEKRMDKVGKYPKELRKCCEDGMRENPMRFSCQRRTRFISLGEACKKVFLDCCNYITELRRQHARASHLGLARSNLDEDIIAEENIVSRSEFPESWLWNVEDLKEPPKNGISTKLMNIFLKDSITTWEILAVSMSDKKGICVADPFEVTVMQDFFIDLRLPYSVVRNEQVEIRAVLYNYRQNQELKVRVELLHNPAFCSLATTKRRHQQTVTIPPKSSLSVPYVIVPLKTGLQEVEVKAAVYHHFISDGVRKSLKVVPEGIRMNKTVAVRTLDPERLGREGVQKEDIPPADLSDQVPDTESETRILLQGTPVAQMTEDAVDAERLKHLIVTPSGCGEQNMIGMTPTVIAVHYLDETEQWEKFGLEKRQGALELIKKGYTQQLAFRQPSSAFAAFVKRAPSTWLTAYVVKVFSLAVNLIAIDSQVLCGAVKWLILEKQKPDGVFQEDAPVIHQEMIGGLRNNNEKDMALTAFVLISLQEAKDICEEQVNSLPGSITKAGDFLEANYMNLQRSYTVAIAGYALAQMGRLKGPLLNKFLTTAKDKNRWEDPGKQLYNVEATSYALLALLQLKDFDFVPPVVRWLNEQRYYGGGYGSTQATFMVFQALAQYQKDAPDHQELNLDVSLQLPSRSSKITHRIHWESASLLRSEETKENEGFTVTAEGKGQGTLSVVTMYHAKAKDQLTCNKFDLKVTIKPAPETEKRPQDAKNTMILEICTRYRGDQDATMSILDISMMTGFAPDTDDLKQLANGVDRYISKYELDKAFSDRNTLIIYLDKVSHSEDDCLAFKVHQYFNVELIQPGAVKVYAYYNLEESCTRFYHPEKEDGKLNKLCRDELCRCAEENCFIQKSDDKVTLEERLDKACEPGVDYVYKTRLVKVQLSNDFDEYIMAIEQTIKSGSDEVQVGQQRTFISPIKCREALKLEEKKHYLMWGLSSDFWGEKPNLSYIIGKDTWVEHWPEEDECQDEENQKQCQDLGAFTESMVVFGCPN
Positions of bridges follow the written chain, without caps; N, C: chain ends.

# binder, measurement-unit, CP hemolysis IC50
measured = [
    ("Ac-ICVWQDWGEHRCS-NH2 (disulfide 2-12; SMILES CC[C@H](C)[C@H](NC(C)=O)C(=O)N[C@H]1CSSC[C@@H](C(=O)N[C@@H](CO)C(N)=O)NC(=O)[C@H](CCCNC(=N)N)NC(=O)[C@H](Cc2c[nH]cn2)NC(=O)[C@H](CCC(=O)O)NC(=O)CNC(=O)[C@H](Cc2c[nH]c3ccccc23)NC(=O)[C@H](CC(=O)O)NC(=O)[C@H](CCC(N)=O)NC(=O)[C@H](Cc2c[nH]c3ccccc23)NC(=O)[C@H](C(C)C)NC1=O) [Compound G]", "nM", 180),
    ("Ac-ICVWQDWGEHSCT-NH2 (disulfide 2-12; SMILES CC[C@H](C)[C@H](NC(C)=O)C(=O)N[C@H]1CSSC[C@@H](C(=O)N[C@H](C(N)=O)[C@@H](C)O)NC(=O)[C@H](CO)NC(=O)[C@H](Cc2c[nH]cn2)NC(=O)[C@H](CCC(=O)O)NC(=O)CNC(=O)[C@H](Cc2c[nH]c3ccccc23)NC(=O)[C@H](CC(=O)O)NC(=O)[C@H](CCC(N)=O)NC(=O)[C@H](Cc2c[nH]c3ccccc23)NC(=O)[C@H](C(C)C)NC1=O) [Compound F]", "nM", 540),
    ("Ac-ICIWQDWGEHRCT-NH2 (disulfide 2-12; SMILES CC[C@H](C)[C@H](NC(C)=O)C(=O)N[C@H]1CSSC[C@@H](C(=O)N[C@H](C(N)=O)[C@@H](C)O)NC(=O)[C@H](CCCNC(=N)N)NC(=O)[C@H](Cc2c[nH]cn2)NC(=O)[C@H](CCC(=O)O)NC(=O)CNC(=O)[C@H](Cc2c[nH]c3ccccc23)NC(=O)[C@H](CC(=O)O)NC(=O)[C@H](CCC(N)=O)NC(=O)[C@H](Cc2c[nH]c3ccccc23)NC(=O)[C@H]([C@@H](C)CC)NC1=O) [Compound 2]", "nM", 94),
    ("Ac-ICVWQDWGEHRCTGAES-NH2 (disulfide 2-12; SMILES CC[C@H](C)[C@H](NC(C)=O)C(=O)N[C@H]1CSSC[C@@H](C(=O)N[C@H](C(=O)NCC(=O)N[C@@H](C)C(=O)N[C@@H](CCC(=O)O)C(=O)N[C@@H](CO)C(N)=O)[C@@H](C)O)NC(=O)[C@H](CCCNC(=N)N)NC(=O)[C@H](Cc2c[nH]cn2)NC(=O)[C@H](CCC(=O)O)NC(=O)CNC(=O)[C@H](Cc2c[nH]c3ccccc23)NC(=O)[C@H](CC(=O)O)NC(=O)[C@H](CCC(N)=O)NC(=O)[C@H](Cc2c[nH]c3ccccc23)NC(=O)[C@H](C(C)C)NC1=O) [Compound D]", "nM", 210),
]
